Measured values drawn from patent US11905294B2 for this set.

ASSAYED TARGET: PI3K (p110α/p85α) (Homo sapiens)
Sequence (P42336 whole entry, one chain of several): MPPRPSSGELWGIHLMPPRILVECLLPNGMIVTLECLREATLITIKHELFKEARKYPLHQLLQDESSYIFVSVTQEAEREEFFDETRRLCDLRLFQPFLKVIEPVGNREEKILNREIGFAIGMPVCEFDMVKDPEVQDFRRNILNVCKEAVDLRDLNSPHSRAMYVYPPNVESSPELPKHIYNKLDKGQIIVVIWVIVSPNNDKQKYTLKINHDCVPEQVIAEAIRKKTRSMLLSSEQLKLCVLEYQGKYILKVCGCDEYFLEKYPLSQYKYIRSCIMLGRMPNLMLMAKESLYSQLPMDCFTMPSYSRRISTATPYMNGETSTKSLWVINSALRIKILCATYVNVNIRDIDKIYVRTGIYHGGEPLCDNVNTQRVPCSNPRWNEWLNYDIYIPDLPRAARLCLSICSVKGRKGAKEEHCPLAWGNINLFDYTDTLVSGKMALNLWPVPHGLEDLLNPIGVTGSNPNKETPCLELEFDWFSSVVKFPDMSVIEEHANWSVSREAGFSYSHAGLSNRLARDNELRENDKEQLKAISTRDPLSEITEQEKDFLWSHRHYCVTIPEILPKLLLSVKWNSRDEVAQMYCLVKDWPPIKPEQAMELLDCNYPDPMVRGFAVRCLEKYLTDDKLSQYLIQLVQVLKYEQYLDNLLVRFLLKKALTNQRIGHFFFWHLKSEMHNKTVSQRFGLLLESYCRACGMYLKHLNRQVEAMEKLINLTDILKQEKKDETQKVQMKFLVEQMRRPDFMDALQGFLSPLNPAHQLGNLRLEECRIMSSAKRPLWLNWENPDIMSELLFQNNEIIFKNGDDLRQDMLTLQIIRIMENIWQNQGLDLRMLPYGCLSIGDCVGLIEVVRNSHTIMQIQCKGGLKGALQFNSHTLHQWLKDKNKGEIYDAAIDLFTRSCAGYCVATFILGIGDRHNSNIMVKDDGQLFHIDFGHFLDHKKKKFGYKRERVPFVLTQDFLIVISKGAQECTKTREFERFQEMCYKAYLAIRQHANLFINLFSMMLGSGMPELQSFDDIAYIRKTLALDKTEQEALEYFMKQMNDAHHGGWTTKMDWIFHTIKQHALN
TEST NAME: PI3Kα assay (ADP-Glo Kinase Assay)
Format: biochemical
STUDY CONDITIONS: recombinant enzyme; IC50 (nM) or max inhibition (%) at 0.5 μM
Entries annotated with measured IC50
ASSAY ENDPOINT: IC50 (nM)

COMPOUND: Cc1nc([C@@H](C)c2cc(Cl)c(F)c(C(=O)NC[C@@H]3CCOC3)c2OC(C)C)n2ccnc(N)c12 [Compound 35]
READING UNIT: nM
COMPARISON OPERATOR: =
OBSERVED: 46000
--
COMPOUND: Cc1nc(C(C)c2cc(Cl)c(F)c(C(=O)Nc3ccccc3)c2OC(C)C)n2ccnc(N)c12 (centres unmarked) [Compound 12]
READING UNIT: nM
COMPARISON OPERATOR: >
OBSERVED: 50000
--
COMPOUND: Cc1nc([C@@H](C)c2cc(Cl)c(F)c(C(=O)N3CC4CCC(C3)O4)c2OC(C)C)n2ccnc(N)c12 [Compound 52]
READING UNIT: nM
COMPARISON OPERATOR: =
OBSERVED: 10000
--
COMPOUND: Cc1nc([C@@H](C)c2cc(Cl)c(F)c(C(=O)NCC3CCOCC3)c2OC(C)C)n2ccnc(N)c12 [Compound 51]
READING UNIT: nM
COMPARISON OPERATOR: =
OBSERVED: 27000
--
COMPOUND: Cc1nc(C(C)c2cc(Cl)c(F)c(C(=O)NC3(C(=O)O)CC3)c2OC(C)C)n2ccnc(N)c12 (centres unmarked) [Compound 2]
READING UNIT: nM
COMPARISON OPERATOR: >
OBSERVED: 50000
--
COMPOUND: Cc1nc([C@@H](C)c2cc(Cl)c(F)c(C(=O)N[C@H]3C[C@@H](O)C3)c2OC(C)C)n2ccnc(N)c12 [Compound 63]
READING UNIT: nM
COMPARISON OPERATOR: =
OBSERVED: 38000
--
COMPOUND: Cc1nc(C(C)c2cc(Cl)c(F)c(C(=O)NC[C@@H](C)O)c2OC(C)C)n2ccnc(N)c12 (some centres unmarked) [Compound 9]
READING UNIT: nM
COMPARISON OPERATOR: =
OBSERVED: 43000
--
COMPOUND: Cc1nc([C@@H](C)c2cc(Cl)c(F)c(C(=O)N[C@]3(C)C[C@@H](O)C3)c2OC(C)C)n2ccnc(N)c12 [Compound 39]
READING UNIT: nM
COMPARISON OPERATOR: =
OBSERVED: 10000
--
COMPOUND: Cc1nc([C@@H](C)c2cc(Cl)c(F)c(C(=O)NCC3(O)CC3)c2OC(C)C)n2ccnc(N)c12 [Compound 66]
READING UNIT: nM
COMPARISON OPERATOR: =
OBSERVED: 14000
--
COMPOUND: CO[C@H]1CCN(C(=O)c2c(F)c(Cl)cc([C@H](C)c3nc(C)c4c(N)nccn34)c2OC(C)C)C1 [Compound 70]
READING UNIT: nM
COMPARISON OPERATOR: =
OBSERVED: 41000
--
COMPOUND: Cc1nc(C(C)c2cc(Cl)c(F)c(C(=O)N3CC[C@H](O)C3)c2OC(C)C)n2ccnc(N)c12 (some centres unmarked) [Compound 6]
READING UNIT: nM
COMPARISON OPERATOR: >
OBSERVED: 50000
--
COMPOUND: Cc1nc(C(C)c2cc(Cl)c(F)c(C(=O)N3CCOCC3)c2OC(C)C)n2ccnc(N)c12 (single isomer, unassigned) [Compound 4A]
READING UNIT: nM
COMPARISON OPERATOR: =
OBSERVED: 13000
--
COMPOUND: Cc1nc([C@@H](C)c2cc(Cl)c(F)c(C(=O)N[C@H]3CCCC[C@H]3O)c2OC(C)C)n2ccnc(N)c12 [Compound 47]
READING UNIT: nM
COMPARISON OPERATOR: =
OBSERVED: 27000
--
COMPOUND: Cc1nc([C@@H](C)c2cc(Cl)c(F)c(C(=O)N[C@H]3CC[C@H](O)C3)c2OC(C)C)n2ccnc(N)c12 [Compound 71]
READING UNIT: nM
COMPARISON OPERATOR: =
OBSERVED: 14000

---

Listed here: items and their measured IC50.
ASSAYED TARGET: PI3K (p110β/p85α) (Homo sapiens, UniProt P42338)
Sequence (P42338 whole entry, one chain of several): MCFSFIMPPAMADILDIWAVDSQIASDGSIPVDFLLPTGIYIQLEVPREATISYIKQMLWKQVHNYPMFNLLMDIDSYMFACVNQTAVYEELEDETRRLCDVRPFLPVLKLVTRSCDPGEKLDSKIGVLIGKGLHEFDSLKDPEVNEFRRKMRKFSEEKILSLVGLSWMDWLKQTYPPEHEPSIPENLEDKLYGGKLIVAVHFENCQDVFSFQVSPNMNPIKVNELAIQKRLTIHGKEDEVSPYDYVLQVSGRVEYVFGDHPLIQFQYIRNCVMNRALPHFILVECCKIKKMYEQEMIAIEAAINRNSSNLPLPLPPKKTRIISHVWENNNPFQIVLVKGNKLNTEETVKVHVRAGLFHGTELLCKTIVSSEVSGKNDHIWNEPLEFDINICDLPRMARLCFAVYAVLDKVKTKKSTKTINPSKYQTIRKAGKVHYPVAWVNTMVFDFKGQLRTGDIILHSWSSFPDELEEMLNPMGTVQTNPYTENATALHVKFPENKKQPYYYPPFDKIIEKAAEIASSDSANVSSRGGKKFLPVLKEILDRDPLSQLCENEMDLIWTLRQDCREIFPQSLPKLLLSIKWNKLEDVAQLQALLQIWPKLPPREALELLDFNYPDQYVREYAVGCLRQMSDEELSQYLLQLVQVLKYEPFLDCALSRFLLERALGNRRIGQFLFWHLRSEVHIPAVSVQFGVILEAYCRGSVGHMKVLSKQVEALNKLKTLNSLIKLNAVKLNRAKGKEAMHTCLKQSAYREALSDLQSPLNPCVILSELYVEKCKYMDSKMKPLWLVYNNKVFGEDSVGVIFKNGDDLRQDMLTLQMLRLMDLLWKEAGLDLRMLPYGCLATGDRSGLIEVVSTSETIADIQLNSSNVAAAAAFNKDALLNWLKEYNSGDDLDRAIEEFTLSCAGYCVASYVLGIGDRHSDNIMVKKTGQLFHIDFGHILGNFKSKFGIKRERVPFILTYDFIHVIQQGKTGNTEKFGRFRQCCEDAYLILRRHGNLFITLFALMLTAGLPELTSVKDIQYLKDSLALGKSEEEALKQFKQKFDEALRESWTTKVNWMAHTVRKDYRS
TEST NAME: PI3Kβ assay (ADP-Glo Kinase Assay)
Assay type: biochemical
STUDY CONDITIONS: read-out: Enzyme activity IC50 PI3Kβ
ASSAY ENDPOINT: IC50

COMPOUND: Cc1nc([C@@H](C)c2cc(Cl)c(F)c(C(=O)N[C@H](C)c3ccnc(C(F)(F)F)c3)c2OC(C)C)n2ccnc(N)c12 [Compound 59B]
OBSERVED: 26 µM
//
COMPOUND: Cc1nc([C@@H](C)c2cc(Cl)c(F)c(C(=O)N[C@H]3CC[C@H](O)C3)c2OC(C)C)n2ccnc(N)c12
OBSERVED: 13 µM
//
COMPOUND: Cc1nc(C(C)c2cc(Cl)c(F)c(C(=O)N3CC[C@H](O)C3)c2OC(C)C)n2ccnc(N)c12 (stereo partly shown)
OBSERVED: > 50 µM
//
COMPOUND: Cc1nc([C@@H](C)c2cc(Cl)c(F)c(C(=O)N[C@H]3CCC[C@@H]3O)c2OC(C)C)n2ccnc(N)c12
OBSERVED: 11 µM

---

TEST NAME: Pharmacokinetic properties in Sprague-Dawley rats after intravenous (IV) and oral (PO) administration
Type: in vivo
STUDY CONDITIONS: male, Sprague-Dawley, plasma, 10 mg·kg^−1; rat, PO 10 mpk vs IV 1 mpk

COMPOUND: Cc1nc([C@@H](C)c2cc(Cl)c(F)c(C(=O)NCCN3CCN(C)CC3)c2OC(C)C)n2ccnc(N)c12 [Compound 73]
bioavailability / %: 34.9

---

ASSAYED TARGET: PI3K (p110γ) (Homo sapiens)
Sequence (P48736 whole entry): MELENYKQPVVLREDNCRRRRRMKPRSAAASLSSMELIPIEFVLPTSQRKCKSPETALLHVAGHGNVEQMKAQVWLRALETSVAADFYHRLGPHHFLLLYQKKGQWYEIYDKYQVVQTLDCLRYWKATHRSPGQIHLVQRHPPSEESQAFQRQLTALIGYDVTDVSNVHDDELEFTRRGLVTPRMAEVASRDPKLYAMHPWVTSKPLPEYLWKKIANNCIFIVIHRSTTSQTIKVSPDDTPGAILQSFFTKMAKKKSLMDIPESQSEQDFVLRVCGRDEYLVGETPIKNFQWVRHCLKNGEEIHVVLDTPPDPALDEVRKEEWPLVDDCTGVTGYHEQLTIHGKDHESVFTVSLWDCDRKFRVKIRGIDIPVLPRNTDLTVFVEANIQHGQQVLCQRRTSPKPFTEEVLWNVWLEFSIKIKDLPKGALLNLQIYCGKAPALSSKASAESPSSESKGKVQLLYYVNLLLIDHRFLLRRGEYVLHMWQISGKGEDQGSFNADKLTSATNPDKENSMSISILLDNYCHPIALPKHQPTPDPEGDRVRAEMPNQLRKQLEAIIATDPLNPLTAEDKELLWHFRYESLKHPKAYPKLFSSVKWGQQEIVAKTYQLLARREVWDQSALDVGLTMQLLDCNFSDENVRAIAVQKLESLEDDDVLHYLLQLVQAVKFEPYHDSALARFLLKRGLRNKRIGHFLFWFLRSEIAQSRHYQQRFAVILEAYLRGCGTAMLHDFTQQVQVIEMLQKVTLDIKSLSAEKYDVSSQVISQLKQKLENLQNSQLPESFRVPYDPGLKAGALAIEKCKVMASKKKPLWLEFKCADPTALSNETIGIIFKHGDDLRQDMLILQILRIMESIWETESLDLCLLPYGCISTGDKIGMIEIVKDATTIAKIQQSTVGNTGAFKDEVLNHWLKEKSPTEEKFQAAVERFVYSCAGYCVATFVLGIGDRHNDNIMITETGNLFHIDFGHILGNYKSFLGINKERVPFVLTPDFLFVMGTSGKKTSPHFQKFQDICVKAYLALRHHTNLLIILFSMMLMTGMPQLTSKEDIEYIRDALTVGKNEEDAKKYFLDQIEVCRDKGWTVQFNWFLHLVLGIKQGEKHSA
TEST NAME: PI3Kγ assay (ADP-Glo Kinase Assay)
Type: biochemical
STUDY CONDITIONS: recombinant enzyme; IC50 (nM) or max inhibition (%) at 0.5 μM
Note to self: IC50 under 6000 nM means 1, ties and anything higher get 0.

COMPOUND: Cc1nc([C@@H](C)c2cc(Cl)c(F)c(C(=O)NC[C@H]3CCCO3)c2OC(C)C)n2ccnc(N)c12
ANSWER LABEL: 0

COMPOUND: Cc1nc([C@@H](C)c2cc(Cl)c(F)c(C(=O)N[C@H](C)c3ccnc(C(F)(F)F)c3)c2OC(C)C)n2ccnc(N)c12 [Compound 59B]
ANSWER LABEL: 1

COMPOUND: Cc1nc(C(C)c2cc(Cl)c(F)c(C(=O)Nc3ccccc3)c2OC(C)C)n2ccnc(N)c12 (stereo not shown)
ANSWER LABEL: 0

COMPOUND: CO[C@@H]1CCCN(C(=O)c2c(F)c(Cl)cc([C@H](C)c3nc(C)c4c(N)nccn34)c2OC(C)C)C1
ANSWER LABEL: 1

COMPOUND: Cc1nc([C@@H](C)c2cc(Cl)c(F)c(C(=O)N[C@@H](C)c3ccccc3)c2OC(C)C)n2ccnc(N)c12
ANSWER LABEL: 1

COMPOUND: Cc1nc([C@@H](C)c2cc(Cl)c(F)c(C(=O)NCC3CCN(C)CC3)c2OC(C)C)n2ccnc(N)c12
ANSWER LABEL: 0

COMPOUND: Cc1nc([C@@H](C)c2cc(Cl)c(F)c(C(=O)NC[C@@H]3CCCO3)c2OC(C)C)n2ccnc(N)c12
ANSWER LABEL: 1

---

ASSAYED TARGET: PI3K (p110δ/p85α) (Homo sapiens)
Sequence (O00329 whole entry): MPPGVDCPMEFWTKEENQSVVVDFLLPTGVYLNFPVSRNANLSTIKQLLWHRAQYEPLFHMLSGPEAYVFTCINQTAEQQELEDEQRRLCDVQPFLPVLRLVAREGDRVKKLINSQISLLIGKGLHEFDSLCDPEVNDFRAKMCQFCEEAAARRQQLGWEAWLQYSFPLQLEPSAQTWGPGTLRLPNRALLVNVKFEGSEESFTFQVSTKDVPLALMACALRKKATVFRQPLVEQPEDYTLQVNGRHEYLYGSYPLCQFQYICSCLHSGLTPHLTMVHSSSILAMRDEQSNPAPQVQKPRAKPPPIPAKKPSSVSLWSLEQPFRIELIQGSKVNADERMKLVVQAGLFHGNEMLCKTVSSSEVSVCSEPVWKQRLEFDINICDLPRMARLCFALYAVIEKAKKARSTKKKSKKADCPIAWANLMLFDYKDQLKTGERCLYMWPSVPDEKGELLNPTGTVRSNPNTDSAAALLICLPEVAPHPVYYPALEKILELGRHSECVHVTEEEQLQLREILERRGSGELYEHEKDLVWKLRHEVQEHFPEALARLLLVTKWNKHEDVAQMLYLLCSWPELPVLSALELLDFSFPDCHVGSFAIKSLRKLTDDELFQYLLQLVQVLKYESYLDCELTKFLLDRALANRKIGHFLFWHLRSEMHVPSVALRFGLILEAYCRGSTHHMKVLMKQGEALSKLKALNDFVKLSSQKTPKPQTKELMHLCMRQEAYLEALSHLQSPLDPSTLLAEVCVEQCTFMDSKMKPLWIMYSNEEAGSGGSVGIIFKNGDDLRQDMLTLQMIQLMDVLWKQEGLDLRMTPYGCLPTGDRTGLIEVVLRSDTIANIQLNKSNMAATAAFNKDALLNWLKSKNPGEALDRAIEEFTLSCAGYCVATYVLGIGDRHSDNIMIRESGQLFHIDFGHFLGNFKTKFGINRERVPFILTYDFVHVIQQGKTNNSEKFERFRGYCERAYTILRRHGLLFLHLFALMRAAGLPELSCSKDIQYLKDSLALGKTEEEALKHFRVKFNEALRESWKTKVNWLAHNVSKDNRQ
Sequence (P27986 whole entry partner): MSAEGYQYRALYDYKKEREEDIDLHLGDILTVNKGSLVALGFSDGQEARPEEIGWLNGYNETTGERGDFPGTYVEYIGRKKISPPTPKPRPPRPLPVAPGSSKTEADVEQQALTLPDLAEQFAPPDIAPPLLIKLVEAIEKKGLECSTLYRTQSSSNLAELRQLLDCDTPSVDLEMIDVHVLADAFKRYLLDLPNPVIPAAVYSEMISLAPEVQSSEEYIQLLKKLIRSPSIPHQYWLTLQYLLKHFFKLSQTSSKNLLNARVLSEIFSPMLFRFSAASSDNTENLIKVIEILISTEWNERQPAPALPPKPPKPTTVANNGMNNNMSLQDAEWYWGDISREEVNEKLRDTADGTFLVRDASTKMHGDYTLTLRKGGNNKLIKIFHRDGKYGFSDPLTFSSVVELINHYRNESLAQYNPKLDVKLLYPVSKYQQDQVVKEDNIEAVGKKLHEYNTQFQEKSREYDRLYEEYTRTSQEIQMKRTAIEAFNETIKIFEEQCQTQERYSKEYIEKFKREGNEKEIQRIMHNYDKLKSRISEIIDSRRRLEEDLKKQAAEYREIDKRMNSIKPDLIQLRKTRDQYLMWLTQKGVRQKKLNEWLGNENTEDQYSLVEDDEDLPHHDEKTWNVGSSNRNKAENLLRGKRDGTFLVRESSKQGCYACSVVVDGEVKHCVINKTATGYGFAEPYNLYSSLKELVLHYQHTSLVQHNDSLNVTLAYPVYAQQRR
TEST NAME: PI3Kδ assay (ADP-Glo Kinase Assay)
Format: biochemical
STUDY CONDITIONS: recombinant enzyme; IC50 (nM) or max inhibition (%) at 0.5 μM

COMPOUND: Cc1nc([C@@H](C)c2cc(Cl)c(F)c(C(=O)N[C@H]3CC[C@H](O)CC3)c2OC(C)C)n2ccnc(N)c12
IC50 / nM: 0.95
//
COMPOUND: Cc1nc([C@@H](C)c2cc(Cl)c(F)c(C(=O)NCC3CC3)c2OC(C)C)n2ccnc(N)c12
IC50 / nM: 1.2
//
COMPOUND: Cc1nc(C(C)c2cc(Cl)c(F)c(C(=O)NCC3(O)CC3)c2OC(C)C)n2ccnc(N)c12 (stereo not shown)
IC50 / nM: 3
//
COMPOUND: Cc1nc([C@@H](C)c2cc(Cl)c(F)c(C(=O)N[C@@H]3CCC[C@H]3O)c2OC(C)C)n2ccnc(N)c12
IC50 / nM: 2.2
//
COMPOUND: Cc1nc([C@@H](C)c2cc(Cl)c(F)c(C(=O)N[C@H](C)c3ccccc3)c2OC(C)C)n2ccnc(N)c12
IC50 / nM: 3.7
//
COMPOUND: Cc1nc([C@@H](C)c2cc(Cl)c(F)c(C(=O)N[C@H]3CCC[C@H]3O)c2OC(C)C)n2ccnc(N)c12
IC50 / nM: 1.9
//
COMPOUND: COc1ccc([C@@H](C)NC(=O)c2c(F)c(Cl)cc([C@H](C)c3nc(C)c4c(N)nccn34)c2OC(C)C)cc1
IC50 / nM: 2
